# subject_of_test: Torsin-1A-interacting protein 1 (Homo sapiens) (UniProt Q5JTV8)
# Sequence (Q5JTV8 whole entry, looked up): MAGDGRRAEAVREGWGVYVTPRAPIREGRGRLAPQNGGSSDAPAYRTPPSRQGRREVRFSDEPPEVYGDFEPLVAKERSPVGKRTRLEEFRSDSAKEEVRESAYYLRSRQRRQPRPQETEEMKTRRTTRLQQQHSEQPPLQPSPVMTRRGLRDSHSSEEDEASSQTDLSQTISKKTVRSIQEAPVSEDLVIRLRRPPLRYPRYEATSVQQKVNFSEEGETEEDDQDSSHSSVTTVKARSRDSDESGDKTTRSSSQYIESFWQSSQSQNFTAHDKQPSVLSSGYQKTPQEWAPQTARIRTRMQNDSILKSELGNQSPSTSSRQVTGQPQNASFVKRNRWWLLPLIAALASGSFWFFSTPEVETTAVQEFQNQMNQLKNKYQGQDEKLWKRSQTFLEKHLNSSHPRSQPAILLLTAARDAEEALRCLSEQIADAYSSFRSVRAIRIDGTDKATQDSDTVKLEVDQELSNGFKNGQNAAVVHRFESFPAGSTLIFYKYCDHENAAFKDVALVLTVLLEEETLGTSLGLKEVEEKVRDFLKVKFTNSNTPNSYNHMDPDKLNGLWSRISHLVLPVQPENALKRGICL
# method: LAP1 binders from COS7 cell lysate, primary screen, small-molecule microarray, 635/667 nm fluorescence (AID 1116)
# test_context: COS7-hLAP1 lysate binding, 635 nm fluorescence, higher = more signal
quantity_measured: composite z-score

{"molecule": "CCOC(=O)C1=CCC(c2ccc([N+](=O)[O-])cc2)N(S(=O)(=O)c2ccc(C)cc2)C1 (configuration not stated)", "subject_of_test": "Torsin-1A-interacting protein 1 (Homo sapiens) (UniProt Q5JTV8)", "test_value": 0.304}
{"molecule": "O=C/C=C/c1ccc2c(c1)OCO2", "subject_of_test": "Torsin-1A-interacting protein 1 (Homo sapiens) (UniProt Q5JTV8)", "test_value": 0.122}
{"molecule": "CO[C@H]1O[C@H](CO)[C@@H](OC(=O)Nc2ccc3c(c2)OCO3)[C@H](OC(=O)Nc2ccccc2)[C@H]1OC(=O)Nc1ccccc1", "subject_of_test": "Torsin-1A-interacting protein 1 (Homo sapiens) (UniProt Q5JTV8)", "test_value": 1.47}
{"molecule": "COCCOC(=O)N1C(=O)[C@@]2(c3cc(C#CCC(C(=O)OC)C(=O)OC)ccc31)[C@H](c1ccccc1OCCO)N1[C@H](c3ccccc3)[C@H](c3ccccc3)OC(=O)[C@H]1[C@@H]2C(N)=O", "subject_of_test": "Torsin-1A-interacting protein 1 (Homo sapiens) (UniProt Q5JTV8)", "test_value": 1.21}
{"molecule": "CC(C)c1ccc(NN2C(C(O)c3ccc(N(C)C)cc3)C=CC3C(=O)N(c4ccccc4)C(=O)C32)cc1 (configuration not stated)", "subject_of_test": "Torsin-1A-interacting protein 1 (Homo sapiens) (UniProt Q5JTV8)", "test_value": 0.488}
{"molecule": "CC(C)CNC(=O)[C@@H]1c2ccccc2C(=O)N(Cc2cc(C(F)(F)F)cc(C(F)(F)F)c2)[C@H]1c1ccc(CO)cc1", "subject_of_test": "Torsin-1A-interacting protein 1 (Homo sapiens) (UniProt Q5JTV8)", "test_value": -0.0708}
{"molecule": "C=C(COC)/C(=C/C[C@H](OC(=O)c1ccncc1)c1cccc(OCCO)c1)c1cc(C(=O)OC)ccc1OC", "subject_of_test": "Torsin-1A-interacting protein 1 (Homo sapiens) (UniProt Q5JTV8)", "test_value": 0.516}

---

# method: compound binding in COS7 lysate, probe aLAP1, primary screen, cell lysate, small-molecule microarray (AID 1124);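 note: lysate comes from COS7 cells expressing LAP1 and is applied at 0.3 µg/mL; score merges spot fluorescence near 667 nm with signal-to-noise over triplicate slides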
# test_context: probe aLAP1, fluorescence, higher = more signal
Label rule, in plain words: composite z-score of 0.7 and up is y, under 0.7 is n.

{"structure_notation": "CC(=O)NCCCC[C@@H]1NC(=O)[C@@H]2C[C@H](C(=O)NCCCCCCNC(=O)CS)[C@H](c3ccc(O)cc3)N2C1=O", "class": "n"}
{"structure_notation": "CC(C)NC(=O)[C@@]1(Cc2ccccc2I)c2ccccc2C(=O)N(Cc2ccccc2)[C@H]1c1ccc(CO)cc1", "class": "n"}
{"structure_notation": "COc1ccc(CCNC(=O)[C@@]2(Sc3ccc(C)cc3)CC(=O)N(Cc3ccccc3Cl)[C@@H]2c2ccc(CO)cc2I)cc1", "class": "y"}
{"structure_notation": "CC(C)C(=C=CC[C@H](O)c1ccccc1OCCO)C[C@H](O)c1ccccn1", "class": "y"}
{"structure_notation": "Cc1ccc([C@H]2[C@H](C(=O)O)[C@H](Sc3ccccc3)[C@@H](C(C)C)N2S(=O)(=O)c2ccc(C)cc2)cc1", "class": "y"}
{"structure_notation": "O=C1[C@]2(CO)C=C(Br)[C@@H](C[C@@H]2c2ccccc2)[C@@]12CO2", "class": "n"}
{"structure_notation": "COCCOC(=O)N1C(=O)[C@@]2(c3cc(C#CC4=CCCCC4)ccc31)[C@H](C(=O)N1CCc3cc(OC)c(OC)cc3C1)[C@H]1C(=O)O[C@H](c3ccccc3)[C@H](c3ccccc3)N1[C@@H]2c1ccccc1OCCO", "class": "n"}

---

# method: E. coli growth modulation, two-sided OD650, primary screen, E. coli filamentation project, strain DRC41, 24 h (AID 1093);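 note: MC1000 strain lacking acrAB efflux and sulA so SOS filamentation is blocked; test concentration not given here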
# test_context: OD650, 24 h, higher = more signal, called active from +8 up or from −8 down
Label rule, in plain words: z-score of -0.001 and up is MET, under -0.001 is NOT MET.

{"molecule": "CCOC(=O)[C@H]1C[C@H]2O[C@@]23C[C@H]1C(=O)N1CCCC1[C@@H]3O[Si](C)(C)C(C)(C)C (stereo partly drawn)", "class": "NOT MET"}
{"molecule": "O=C1OCCC=C[C@H]2OC34C=CCN(c5ccc6ccccc6c5)C(=O)[C@H]3N(CCCCCO)C(=O)[C@@H]4C12 (stereo partly drawn)", "class": "MET"}
{"molecule": "C=CC(COC(C)=O)NS(=O)(=O)c1ccc(Br)cc1 (stereo not drawn)", "class": "NOT MET"}
{"molecule": "COCCOC(=O)N1C(=O)[C@@]2(c3cc(C#CCC(C(=O)OC)C(=O)OC)ccc31)[C@H](C(=O)N1CCCCCCC1)[C@H]1C(=O)O[C@H](c3ccccc3)[C@H](c3ccccc3)N1[C@@H]2c1ccc(OCCO)cc1", "class": "MET"}
{"molecule": "CC(=O)NCCCC[C@@H]1NC(=O)[C@@H]2C[C@H](C(=O)NCCCCCCNC(=O)CS)[C@H](c3ccc(O)cc3)N2C1=O", "class": "NOT MET"}
{"molecule": "O=C1c2ccccc2[C@@]2(Cc3ccccc3N(Cc3ccccc3)C2=O)[C@H](c2ccc(CO)cc2)N1C1CCCCC1", "class": "NOT MET"}
{"molecule": "COCCCNC(=O)[C@@]1(CCC(=O)OC(C)(C)C)N=C(c2ccc(OCCCO)cc2)O[C@H]1c1ccccc1CN=[N+]=[N-]", "class": "MET"}
{"molecule": "COC(=O)[C@@]1(Cc2ccccc2)[C@H]2c3cc(C(=O)N(C)C)n(Cc4cc(C)n(C)n4)c3C[C@H]2CN1C(=O)c1ccccc1", "class": "NOT MET"}

---

# method: small-molecule binders of probe aNOTCH2, primary screen, biochemical, small-molecule microarray, 635/667 nm fluorescence (AID 1121);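 note: score merges feature fluorescence read at 667 nm with its signal to noise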
# test_context: higher = more signal

{"compound": "C#CCN(C(/C=C/c1ccccc1)CO)C(C(=O)O)c1ccccc1 (stereo not given)", "composite z-score": -0.181}
{"compound": "C=CCNC(=O)[C@@H]1[C@H]2C(=O)O[C@H](c3ccccc3)[C@H](c3ccccc3)N2[C@H](c2ccc(O)cc2)[C@@]12C(=O)N(C(=O)OCCOC)c1ccccc12", "composite z-score": -0.143}
{"compound": "CN(C)CCCCCCNC(=O)[C@H]1C[C@H]2C(=O)N[C@@H](CCCCN)C(=O)N2[C@H]1c1ccc(O)cc1", "composite z-score": 0.657}
{"compound": "COC(=O)c1ccc(C23CC2(C(NP(=O)(c2ccccc2)c2ccccc2)c2ccccc2)C3)cc1 (stereo not given)", "composite z-score": 0.359}
{"compound": "CCCCC=C[C@@H](NC(=O)c1ccco1)c1ccccc1", "composite z-score": -0.0419}

---

# method: small-molecule microarray binders of probe aXIP, primary screen, biochemical, NeuroSMM set, 635/667 nm fluorescence (AID 1119);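 note: probe is the protein aXip251-270 applied at 1 µg/mL to compound-printed slides; binding of probe to printed compounds measured as 667 nm fluorescence plus signal to noise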
# test_context: higher = more signal, called active from +8 up or from −8 down
quantity_measured: composite Z-score

{"compound": "[N-]=[N+]=NCc1ccccc1[C@H]1OC(c2ccc(OCCCO)cc2)=N[C@@]1(CCS(=O)(=O)c1ccccc1)C(=O)N1CCOCC1", "quantity_measured": "composite Z-score", "test_value": 1.09}
{"compound": "[N-]=[N+]=NCc1ccccc1C[C@]1(C(=O)O)N=C(c2ccc(OCCCO)cc2)O[C@H]1c1ccccc1", "quantity_measured": "composite Z-score", "test_value": -0.37}
{"compound": "CCOc1cc(C(O)C2C=CC3C(=O)N(c4ccccc4)C(=O)C3N2Nc2ccc([N+](=O)[O-])cc2)ccc1O (configuration not stated)", "quantity_measured": "composite Z-score", "test_value": -0.014}
{"compound": "C=CCOC(=O)[C@H]1[C@@H]2C(=O)O[C@@H](c3ccccc3)[C@@H](c3ccccc3)N2[C@@H](c2ccc(OCCOC(=O)[C@@H]3C[C@@H]4C(=O)NCC(=O)N4[C@@H]3c3ccc(O)cc3)cc2)[C@]12C(=O)Nc1ccccc12", "quantity_measured": "composite Z-score", "test_value": 1.07}
{"compound": "O=C1OCCC=C[C@H]2OC34C=CCN(Cc5ccccc5)C(=O)[C@H]3N(CCCO)C(=O)[C@@H]4C12 (some centres not stated)", "quantity_measured": "composite Z-score", "test_value": -0.241}
{"compound": "CCCCC=C[C@@H](NC(=O)c1ccco1)c1ccccc1", "quantity_measured": "composite Z-score", "test_value": -0.474}
{"compound": "COc1ccc([Si](C)(C)[C@H]2[C@H](CCn3cc([C@H](O)c4ccccc4)nn3)O[C@@]3(C(=O)N(Cc4cccc(N5CCC5=O)c4)c4ccccc43)[C@@H]2C)cc1", "quantity_measured": "composite Z-score", "test_value": -0.0916}
